Data credit: the supplement of paper PMC9112550

System: Escherichia coli TOP10;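 also: peptides expressed intracellularly from a pBAD plasmid library in pooled LB shake-flask culture, induced with 0.3% L-arabinose, DNA abundance read by NGS, three biological replicates, DESeq2 with apeglm shrinkage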
test.method.notes: shrunken log2 fold change of peptide-encoding DNA abundance (4.5 h post-induction vs induction); higher = less antimicrobial activity (less host growth inhibition)
reported.conditions: time post-induction: 4.5 h; library: site-saturation at positions 5, 18, 19, 20
Label rule, in plain words: shrunken log2 fold change of 0.02 and up is YES, under 0.02 is NO.

Does "RRIRWRPPRLPRPRPRPDGRPRP" have a reported shrunken log2 fold change of at least 0.02? NO

Given "RRIRNRPPRLPRPRPRPQAEPRP" , state whether its shrunken log2 fold change is at least 0.02. NO

Say whether "RRIRLRPPRLPRPRPRPWYEPRP" shows shrunken log2 fold change of 0.02 or more. YES

Item "RRIRGRPPRLPRPRPRPGAGPRP" with shrunken log2 fold change of 0.02 or above? YES

Quick check: does "RRIRIRPPRLPRPRPRPLTHPRP" have shrunken log2 fold change greater than or equal to 0.02? NO

Determine whether this sequence has shrunken log2 fold change no lower than 0.02: "RRIRGRPPRLPRPRPRPHQRPRP" YES
